Biological target: human A2A receptors (Homo sapiens (Human))
Sequence (P29274 whole entry): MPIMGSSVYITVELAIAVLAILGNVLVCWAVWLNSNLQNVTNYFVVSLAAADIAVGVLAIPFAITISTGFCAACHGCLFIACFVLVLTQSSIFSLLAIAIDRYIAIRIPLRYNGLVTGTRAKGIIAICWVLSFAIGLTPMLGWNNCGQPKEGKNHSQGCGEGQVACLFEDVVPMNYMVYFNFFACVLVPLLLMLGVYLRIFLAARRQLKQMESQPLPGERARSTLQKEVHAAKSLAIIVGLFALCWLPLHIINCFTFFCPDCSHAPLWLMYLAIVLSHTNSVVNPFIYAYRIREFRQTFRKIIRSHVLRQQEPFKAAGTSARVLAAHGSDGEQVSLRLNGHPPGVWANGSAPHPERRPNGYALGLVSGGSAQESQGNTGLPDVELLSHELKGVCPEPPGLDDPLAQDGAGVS
Test: A2A antagonism in cAMP cell-based assay (LANCE cAMP, HEK293)
Conditions: HEK293 cells expressing human A2A receptor
Description: Measurement of A2A and A2B Antagonism in cAMP Cell-Based Assay The ability of compounds to antagonize human A2A and A2B adenosine receptors was determined using a kit to measure changes in intracellular cyclic AMP levels (LANCE cAMP 384 Kit, Perkin Elmer, Cat. No. AD0264). […]
pIC50: −log10 of the molar value.
reported_metric: pIC50

Incoming: I would be grateful if you could share the reported pIC50 for COc1cc2nc(N)n3nc([C@@H]4CC[C@H](C)N(c5cnn([C@@H](C)[C@H](C)O)c5)C4)nc3c2cc1F (single isomer, unassigned) [Example 228] .
Outgoing: 9.10

Incoming: I would be grateful if you could share the reported pIC50 for COc1cc(F)cc2c1nc(N)n1nc(C3CC(C)CN(c4cn(C(C)C(C)O)nc4C)C3)nc21 (single isomer, unassigned) [Example 227] .
Outgoing: 7.40

Incoming: I would be grateful if you could share the reported pIC50 for CC1CCC(c2nc3c4cc(F)cc(F)c4nc(N)n3n2)CN1c1cnn(CC(C)(CO)CO)c1 (single isomer, unassigned) [Example 261] .
Outgoing: 7.06

a: COc1cc(F)cc2c1nc(N)n1nc(C3CC(C)CN(c4cn(C(C)(C)C(C)O)nc4C)C3)nc21 (single isomer, unassigned) [Example 205]
b: Cc1nn(C(C)C(C)O)cc1N1CC(C)CC(c2nc3c4cc(F)cc(F)c4nc(N)n3n2)C1 (single isomer, unassigned) [Example 213]
c: COc1cc(F)cc2c1nc(N)n1nc(C3CC(C)CN(c4cnn(CC(C)(C)O)c4C)C3)nc21 (single isomer, unassigned) [Example 173]
d: CC(O)C(C)n1cc(N2CC(c3nc4c5cc(F)cc(F)c5nc(N)n4n3)CCC2C)cn1 (single isomer, unassigned) [Example 233]
Incoming: # ascending order, key=pIC50 Show the ranking through the labels, in the order asked for.
Outgoing: b, c, a, d
(b: 6.48, c: 7.68, a: 8.15, d: 9.15)

a: CC(O)C(C)n1cc(N2CCC[C@@H](c3nc4c5cc(F)cc(F)c5nc(N)n4n3)C2)cn1 (single isomer, unassigned) [Example 203]
b: COc1cc(F)cc2c1nc(N)n1nc([C@@H]3CCCN(c4cnn(C(C)C(C)O)c4)C3)nc21 (single isomer, unassigned) [Example 185]
Incoming: Of the two listed items, a and b , which carries the larger pIC50 figure? Choose, then provide that item's label.
Outgoing: b

Values were extracted from patent US11312719B2.
